Measured TbMCP-1 Hill Slope of individual entries
Biological target: UniProtKB Q386R0
Sequence (Q386R0 entry or part of it): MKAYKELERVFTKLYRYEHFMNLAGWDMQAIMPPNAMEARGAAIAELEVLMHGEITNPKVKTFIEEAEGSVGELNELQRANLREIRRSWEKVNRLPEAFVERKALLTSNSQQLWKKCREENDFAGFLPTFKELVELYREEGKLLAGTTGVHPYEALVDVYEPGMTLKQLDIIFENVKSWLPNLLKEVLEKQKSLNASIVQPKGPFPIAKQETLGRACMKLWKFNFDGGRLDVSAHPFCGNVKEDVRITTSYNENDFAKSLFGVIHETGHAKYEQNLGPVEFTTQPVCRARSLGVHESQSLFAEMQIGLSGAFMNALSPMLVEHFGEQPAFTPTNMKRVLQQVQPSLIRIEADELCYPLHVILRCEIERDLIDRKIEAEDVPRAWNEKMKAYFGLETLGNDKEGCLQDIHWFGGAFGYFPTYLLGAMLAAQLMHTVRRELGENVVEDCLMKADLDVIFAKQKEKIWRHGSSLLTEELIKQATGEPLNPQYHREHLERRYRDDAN
Assay: Continuous fluorogenic (FRET) TbMCP-1 assay with Abz-RFFK(Dnp)-OH, primary and secondary screening
Type: biochemical
Conditions: four-parameter Hill fit of dose-response curve

COMPOUND: CN(C)S(=O)(=O)c1ccc(Cl)c(C(=O)Nc2nc(-c3ccccn3)cs2)c1
TbMCP-1 Hill Slope: -2,036
//
COMPOUND: C[C@@H](Oc1cc(-n2cnc3ccc(O[C@H]4CCNC4)cc32)sc1C(N)=O)c1ccccc1Cl
TbMCP-1 Hill Slope: -0,8447
//
COMPOUND: CCC1Oc2cc(S(=O)(=O)N(C)CC(=O)N3CCc4ccccc4C3)c(C)cc2NC1=O (stereo not drawn)
TbMCP-1 Hill Slope: -1,063
//
COMPOUND: CCn1c(-c2nonc2N)nc2c(C(C)O)ncc(OC(CN)c3ccccc3)c21 (stereo not drawn)
TbMCP-1 Hill Slope: -0,894
//
COMPOUND: O=C(N[C@H](CO)c1ccccc1)c1ccc(-c2c[nH]c3nccc(C(F)(F)F)c23)s1
TbMCP-1 Hill Slope: -0,8163
//
COMPOUND: O=c1[nH]c(C=Cc2cccc(OCCOc3ccccc3)c2)nc(O)c1[N+](=O)[O-]
TbMCP-1 Hill Slope: -1,2405
//
COMPOUND: Cl.Cl.O=c1cc(NCCCNCc2cc(C(F)(F)F)cs2)[nH]c2ccccc12
TbMCP-1 Hill Slope: -1,127
//
COMPOUND: Cl.NS(=O)(=O)c1ccc(Nc2ncc3cccc(OC4CCNCC4)c3n2)cc1
TbMCP-1 Hill Slope: -0,7258
//
COMPOUND: CCOC(=O)c1cn[nH]c1S(=O)(=O)N1CCC1c1ccccc1 (stereo not drawn)
TbMCP-1 Hill Slope: -1,247
//
COMPOUND: N#Cc1ccc(S(=O)(=O)N2CCN(Cc3cccc(-c4ccncc4)c3)CC2)cc1
TbMCP-1 Hill Slope: -1,461
//
COMPOUND: Cl.Cl.O=c1ccc2ccc(F)c3c2n1C[C@H]3CN1CCN(CC(O)c2cc3c(cn2)OCS3)CC1 (stereo partly drawn)
TbMCP-1 Hill Slope: -1,014
//
COMPOUND: Cc1ccc2c(c1)-c1onc(C(=O)N3CCCCC3c3cccnc3)c1CO2 (stereo not drawn)
TbMCP-1 Hill Slope: -1,267

----------
Molecular target: UniProt Q6ZXC0
Sequence (Q6ZXC0 entry or part of it): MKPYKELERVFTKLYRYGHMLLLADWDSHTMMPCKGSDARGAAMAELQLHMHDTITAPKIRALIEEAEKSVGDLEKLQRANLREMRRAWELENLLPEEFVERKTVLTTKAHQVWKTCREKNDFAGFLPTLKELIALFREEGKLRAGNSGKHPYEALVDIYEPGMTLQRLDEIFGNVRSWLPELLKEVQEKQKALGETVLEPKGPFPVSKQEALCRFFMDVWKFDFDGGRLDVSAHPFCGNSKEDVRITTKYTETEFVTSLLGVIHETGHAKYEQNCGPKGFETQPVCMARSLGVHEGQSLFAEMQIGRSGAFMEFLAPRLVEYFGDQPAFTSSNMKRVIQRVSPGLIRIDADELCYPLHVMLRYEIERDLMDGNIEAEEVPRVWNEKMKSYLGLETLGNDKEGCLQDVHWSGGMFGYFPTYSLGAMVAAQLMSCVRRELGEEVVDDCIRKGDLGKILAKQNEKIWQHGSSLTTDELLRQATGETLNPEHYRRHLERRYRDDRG
Experiment: Continuous fluorogenic (FRET) TcMCP-1 assay with Abz-LKFK(Dnp)-OH, primary and secondary screening
Type: biochemical
Details: single inhibitor concentration 25 µM
Measured TcMCP-1 Primary screening Inhibition (%) of individual entries
READOUT KIND: TcMCP-1 Primary screening Inhibition (%)

MOLECULE: C[C@@H](Oc1cc(-n2cnc3ccc(O[C@H]4CCNC4)cc32)sc1C(N)=O)c1ccccc1Cl [TCMDC-143515]
READOUT KIND: TcMCP-1 Primary screening Inhibition (%)
OBSERVED: 54,26%

MOLECULE: CC(C)Oc1ccc(C(=O)Nc2ccc(N3CCOCC3)c(Cl)c2)cc1 [TCMDC-143592]
READOUT KIND: TcMCP-1 Primary screening Inhibition (%)
OBSERVED: 56,55%

MOLECULE: CC(Cn1ccnc1)NC(=O)COc1ccc(Cl)c(Cl)c1 (stereo not drawn) [TCMDC-143479]
READOUT KIND: TcMCP-1 Primary screening Inhibition (%)
OBSERVED: 42,39%

MOLECULE: O=C(Nc1nc2cc(Cl)ccc2o1)c1cccc(Cl)c1 [TCMDC-143172]
READOUT KIND: TcMCP-1 Primary screening Inhibition (%)
OBSERVED: 65,01%

MOLECULE: COc1ccc2ncc(Cl)c(CCN3CC[C@@H](NCc4cc5c(cn4)OCS5)[C@H](O)C3)c2n1 [TCMDC-143513]
READOUT KIND: TcMCP-1 Primary screening Inhibition (%)
OBSERVED: 65,65%

MOLECULE: COc1cccc(-c2cc(C(F)(F)F)nc(-n3ccc([N+](=O)[O-])n3)n2)c1 [TCMDC-143105]
READOUT KIND: TcMCP-1 Primary screening Inhibition (%)
OBSERVED: 52,36%

MOLECULE: Cl.NS(=O)(=O)c1ccc(Nc2ncc3cccc(OC4CCNCC4)c3n2)cc1 [TCMDC-143382]
READOUT KIND: TcMCP-1 Primary screening Inhibition (%)
OBSERVED: 53,63%

MOLECULE: Cn1ccnc1CN1CCc2[nH]cnc2C1c1ccccc1OCc1ccccc1 (stereo not drawn) [TCMDC-143242]
READOUT KIND: TcMCP-1 Primary screening Inhibition (%)
OBSERVED: 51,89%

MOLECULE: Cc1cc(C)c(C#N)c(SCC(=O)c2ccc3c(c2)OCO3)n1 [TCMDC-143625]
READOUT KIND: TcMCP-1 Primary screening Inhibition (%)
OBSERVED: 43,83%

MOLECULE: O=C(NNC(=O)c1ccccn1)c1ccc(-c2ccccc2)cc1 [TCMDC-143263]
READOUT KIND: TcMCP-1 Primary screening Inhibition (%)
OBSERVED: 48,44%

MOLECULE: CN(CC1CCCO1)S(=O)(=O)c1ccc(C(=O)Nc2nc(-c3ccccn3)cs2)cc1 (stereo not drawn) [TCMDC-143551]
READOUT KIND: TcMCP-1 Primary screening Inhibition (%)
OBSERVED: 65,04%

MOLECULE: COc1ccc(S(=O)(=O)Nc2ccc(CN3CCN(C(=O)c4cccc(C#N)c4)CC3)cc2)cc1.O=C(O)C(F)(F)F [TCMDC-143496]
READOUT KIND: TcMCP-1 Primary screening Inhibition (%)
OBSERVED: 41,52%

MOLECULE: COc1cccc(S(=O)(=O)Nc2ccc3c(c2)CC(N2CCC(NC(=O)C4CC4)CC2)C3)c1 (stereo not drawn) [TCMDC-143583]
READOUT KIND: TcMCP-1 Primary screening Inhibition (%)
OBSERVED: 77,30%

MOLECULE: COc1cc(Nc2nccc(Nc3onc(C)c3C)n2)cc(S(=O)(=O)C2CCOCC2)c1 [TCMDC-143462]
READOUT KIND: TcMCP-1 Primary screening Inhibition (%)
OBSERVED: 43,06%

MOLECULE: O=C(O)C(F)(F)F.O=C(O)C(F)(F)F.O=C1COC(c2ccccc2)(c2ccccc2)CN1C1CCN(Cc2ccc(-n3ccnc3)cc2)CC1 [TCMDC-143543]
READOUT KIND: TcMCP-1 Primary screening Inhibition (%)
OBSERVED: 43,40%

MOLECULE: CN(C)c1ccc(-c2cc3nccnc3c(OC[C@H]3CCCNC3)n2)cn1.Cl [TCMDC-143408]
READOUT KIND: TcMCP-1 Primary screening Inhibition (%)
OBSERVED: 46,88%

MOLECULE: CC(C)N(C(=O)CN1C(=O)C(N)C(=O)N(c2ccccc2)c2ccccc21)c1ccccc1 (stereo not drawn) [TCMDC-143071]
READOUT KIND: TcMCP-1 Primary screening Inhibition (%)
OBSERVED: 45,44%

MOLECULE: CC(C)Oc1cccc(N2CCC(C(=O)N3CCCN(C(C)C)CC3)CC2)c1.Cl [TCMDC-143432]
READOUT KIND: TcMCP-1 Primary screening Inhibition (%)
OBSERVED: 42,37%
